Data origin, for the record: patent US12685312B2

Test system: apyrase
Assay: Screen for apyrase inhibitors (Method 1, in vitro phosphate-release absorbance assay)
Format: biochemical
Conditions: inhibitor conc at 1 mM stock, 1 hr room temperature, absorbance 630 nm; rounded average of two assay results
# binarize % Inhibition of Apyrase: threshold 60% inclusive, high side fulfilled, low side not fulfilled

Check this compound for % Inhibition of Apyrase at or above 60%: Cc1ccccc1NS(=O)(=O)c1cccc(C(=O)Nc2cccc([N+](=O)[O-])c2)c1
not fulfilled

Reported % Inhibition of Apyrase at or above 60%? NS(=O)(=O)c1cc(C(=O)Nc2ccc(S(=O)(=O)Nc3ccc(Cl)cc3)cc2)ccc1Cl
not fulfilled

# check: % Inhibition of Apyrase of O=C(c1cccc(S(=O)(=O)Nc2ccc(Br)cc2)c1)N1CCN(c2cccc(Cl)c2)CC1 is greater than or equal to 60%
fulfilled

Dear colleague, could you confirm whether O=C(Nc1ccc2c(c1)CCC2)c1cccc(S(=O)(=O)N2CCc3ccccc32)c1 has % Inhibition of Apyrase at or above 60%?
not fulfilled

Has COc1ccc(NC(=O)c2ccccc2NS(=O)(=O)c2cccc(C(F)(F)F)c2)cc1OC a recorded % Inhibition of Apyrase greater than or equal to 60%?
not fulfilled

Could you verify whether the entry Cc1ccc(NC(=O)c2cccc(S(=O)(=O)N3c4ccccc4CC3C)c2)c(C)c1 (stereo not shown) shows % Inhibition of Apyrase of no less than 60%?
not fulfilled

Hello, I need to know if Cc1ccc(NC(=O)c2ccc(S(=O)(=O)Nc3cccc(C(F)(F)F)c3)cc2)c(C)c1 has measured % Inhibition of Apyrase not below 60%. Thanks!
fulfilled

Please tell me: is the compound CCOc1ccc(NS(=O)(=O)c2cccc(C(=O)N3CCCc4ccccc43)c2)cc1 at or over 60% in terms of % Inhibition of Apyrase?
not fulfilled

Is the recorded value of % Inhibition of Apyrase equal to or greater than 60% for this compound? COc1ccccc1NS(=O)(=O)c1cccc(NC(=O)c2ccc(=O)n(Cc3ccccc3)n2)c1
not fulfilled

Check if % Inhibition of Apyrase >= 60% (inclusive). Item: O=C(Nc1ccc2c(c1)OCO2)c1ccccc1NS(=O)(=O)c1cccc(C(F)(F)F)c1
fulfilled

Can CCN(CC)S(=O)(=O)c1cccc(NC(=O)c2ccc(S(=O)(=O)N3CCCc4ccccc43)cc2)c1 be said to have % Inhibition of Apyrase at or above 60%?
not fulfilled

Reported % Inhibition of Apyrase at or above 60%? CC1Cc2ccccc2N1C(=O)c1ccc(S(=O)(=O)Nc2ccccc2)cc1 (stereo not shown) [I-381]
fulfilled

Evaluate Cc1ccc(NS(=O)(=O)c2cccc(C(=O)Nc3c(C)cc(C)cc3C)c2)c(C)c1 : % Inhibition of Apyrase at minimum 60%?
not fulfilled

% Inhibition of Apyrase >= 60% for COc1ccccc1NC(=O)c1ccc(NS(=O)(=O)c2cccc(Cl)c2Cl)cc1 ?
not fulfilled

Hi team, for Cc1ccc(NS(=O)(=O)c2cccc(C(=O)Nc3cccc(S(N)(=O)=O)c3)c2)cc1 , is the recorded % Inhibition of Apyrase at or above 60%?
not fulfilled

Reported % Inhibition of Apyrase reaches at least 60% for O=C(Nc1cnccc1O)c1cccc(NS(=O)(=O)c2ccc(Cl)c(Cl)c2)c1 ?
not fulfilled

Determine whether this compound has % Inhibition of Apyrase no lower than 60%: O=C(Nc1ccc2c(c1)CCC2)c1cccc(NS(=O)(=O)c2cccs2)c1
fulfilled

Identify whether the reported % Inhibition of Apyrase of the following compound is 60% or greater: COc1ccccc1NS(=O)(=O)c1cccc(NC(=O)c2ccc(C)s2)c1
not fulfilled

Is % Inhibition of Apyrase at least 60%? Consider COc1ccc([N+](=O)[O-])cc1NC(=O)c1cccc(S(=O)(=O)N2c3ccccc3CC2C)c1 (stereo not shown)
not fulfilled

Decide: % Inhibition of Apyrase of O=C(Nc1cccc([N+](=O)[O-])c1)c1cccc(S(=O)(=O)NCc2ccccc2)c1 >= 60%?
not fulfilled

# bool: % Inhibition of Apyrase of Cc1ccc(NC(=O)c2ccccc2NS(=O)(=O)c2cccc(C(F)(F)F)c2)cc1 >= 60%
not fulfilled

Record O=C(Nc1cnccn1)c1cccc(NS(=O)(=O)c2ccccc2)c1 ; criterion: % Inhibition of Apyrase no lower than 60%. Met?
not fulfilled

Say whether O=C(Nc1cccc(C(F)(F)F)c1)c1cccc(NS(=O)(=O)c2ccc(Cl)c(C(=O)O)c2)c1 shows % Inhibition of Apyrase of 60% or more.
not fulfilled

% Inhibition of Apyrase >= 60% for O=C(Nc1cccc(S(=O)(=O)Nc2cccc(C(F)(F)F)c2)c1)c1cccnc1 ?
not fulfilled

Would you say O=C(Nc1cnccn1)c1cccc(NS(=O)(=O)c2c(F)cccc2F)c1 shows % Inhibition of Apyrase at minimum 60%?
not fulfilled

Record COc1ccccc1N(C)S(=O)(=O)c1ccc(C(=O)N2CCc3ccc([N+](=O)[O-])cc32)cc1 ; criterion: % Inhibition of Apyrase no lower than 60%. Met?
not fulfilled

Assess whether reported % Inhibition of Apyrase for Cc1ccc([N+](=O)[O-])cc1NC(=O)c1cc(S(=O)(=O)Nc2ccc(Br)cc2)c(Cl)cc1Cl sits at 60% or higher.
not fulfilled

Decide: % Inhibition of Apyrase of CC(=O)c1cccc(S(=O)(=O)Nc2cccc(C(=O)Nc3cccc(C(F)(F)F)c3)c2)c1 >= 60%?
fulfilled

Please indicate if the recorded % Inhibition of Apyrase for Cc1ccc(C)c(S(=O)(=O)Nc2ccc(C(=O)Nc3cccc(C(F)(F)F)c3)cc2)c1 meets or exceeds 60%.
not fulfilled

Confirm if % Inhibition of Apyrase reported for the compound CN(c1ccccc1)S(=O)(=O)c1ccccc1C(=O)Nc1ccc(C#N)cc1 [I-235] is 60% or above.
not fulfilled

Please indicate if the recorded % Inhibition of Apyrase for Cc1ccc(F)cc1NC(=O)c1cccc(S(=O)(=O)N2CCc3ccccc32)c1 meets or exceeds 60%.
not fulfilled
